The reported numbers originate from ChEMBL document CHEMBL1149262.

Reported Activity is given for each of the following compounds.
# Tested on: Mus musculus
# experiment: Locomotor activity in CD1 mouse assessed as stimulation at 30 mg/kg, ip after 1 hr relative to control
# Type: functional
# assay_context: route intraperitoneal
Give your result in % as a bare value.

Study these solved cases before continuing.
Entry COC(=O)[C@H]1C2CCC(C[C@@H]1c1ccc(C)cc1)N2C (stereo not given in full) needs its Activity filled in; supply it.
-23

Entry COC(=O)[C@@H]1C2CCC(C[C@H]1c1ccc(I)cc1)N2C (stereo not given in full) needs its Activity filled in; supply it.
308

Entry COC(=O)[C@H]1[C@H]2CCC(C[C@H]1c1ccc(Cl)cc1)N2C needs its Activity filled in; supply it.
-46

Entry COC(=O)[C@@H]1C2CCC(C[C@H]1c1ccccc1)N2C (stereo not given in full) needs its Activity filled in; supply it.
161

Continuing:
Entry COC(=O)[C@H]1C2CCC(C[C@@H]1c1ccc(F)cc1)N2C (stereo not given in full) needs its Activity filled in; supply it.
24

----------
# System: Mus musculus
# experiment: Locomotor activity in CD1 mouse assessed as stimulation at 30 mg/kg, ip after 3 hrs relative to control
# Type: functional
# assay_context: route intraperitoneal
observation_type: Activity (%)
Give your result in % as a bare value.

Study these solved cases before continuing.
Provide Mus musculus Activity reading for COC(=O)[C@H]1[C@H]2CCC(C[C@H]1c1ccc(Cl)cc1)N2C .
125

Provide Mus musculus Activity reading for COC(=O)[C@H]1C2CCC(C[C@@H]1c1ccc(C)cc1)N2C (stereo partly specified) .
17

Provide Mus musculus Activity reading for COC(=O)[C@H]1C2CCC(C[C@@H]1c1ccc(Cl)cc1)N2C (stereo partly specified) .
911

Provide Mus musculus Activity reading for COC(=O)[C@@H]1C2CCC(C[C@H]1c1ccc(F)cc1)N2C (stereo partly specified) .
215

Provide Mus musculus Activity reading for COC(=O)[C@H]1C2CCC(C[C@@H]1c1ccccc1)N2C (stereo partly specified) .
69

Provide Mus musculus Activity reading for COC(=O)[C@H]1C2CCC(C[C@@H]1c1ccc(Br)cc1)N2C (stereo partly specified) .
901

Provide Mus musculus Activity reading for COC(=O)[C@@H]1C2CCC(C[C@H]1c1ccccc1)N2C (stereo partly specified) .
47

Provide Mus musculus Activity reading for COC(=O)[C@@H]1C2CCC(C[C@H]1c1ccc(C)cc1)N2C (stereo partly specified) .
5

Provide Mus musculus Activity reading for COC(=O)[C@@H]1C2CCC(C[C@H]1c1ccc(I)cc1)N2C (stereo partly specified) .
391

Provide Mus musculus Activity reading for COC(=O)[C@H]1[C@H]2CCC(C[C@H]1c1ccc(C)cc1)N2C .
78

# evaluate next
Provide Mus musculus Activity reading for COC(=O)[C@@H]1C2CCC(C[C@H]1c1ccc(Cl)cc1)N2C (stereo partly specified) .
1002

----------
# Test system: Rattus norvegicus
# experiment: Cocaine discrimination in ip dosed CD Albino rat
# Format: functional
Mark rule met for ED50 under 7 mg/kg, rule not met if at or over.

Answered examples (4):
Is ED50 strictly under 7 mg/kg for the entry COC(=O)[C@@H]1C2CCC(C[C@H]1c1ccc(I)cc1)N2C (stereo partly specified) ?
rule met

Is ED50 strictly under 7 mg/kg for the entry COC(=O)[C@@H]1C2CC[C@H](C[C@@H]1c1ccccc1)N2C ?
rule met

Is ED50 strictly under 7 mg/kg for the entry COC(=O)[C@H]1C2CCC(C[C@@H]1c1ccccc1)N2C (stereo partly specified) ?
rule not met

Is ED50 strictly under 7 mg/kg for the entry COC(=O)[C@H]1C2CCC(C[C@@H]1c1ccc(Br)cc1)N2C (stereo partly specified) ?
rule not met

Continuing:
Is ED50 strictly under 7 mg/kg for the entry COC(=O)[C@@H]1C2CCC(C[C@@H]1c1ccc(Br)cc1)N2C (stereo partly specified) ?
rule met

Is ED50 strictly under 7 mg/kg for the entry COC(=O)[C@H]1C2CCC(C[C@@H]1c1ccc(F)cc1)N2C (stereo partly specified) ?
rule not met
